tested on: TK-10; test: NCI tumour cell line growth inhibition, 48 h
Counter-ions that a name gives are not always drawn. The source made the active and inactive calls. Cut-off read from the data, not from the text of the source: active = GI50 up to about 1.1 µM and inactive = higher.
Hello, when you answer, please use one of the following outcomes: YES for active, NO for inactive

Take a look at these entries with their results.
O=C(Nc1sccc1S(=O)(=O)c1ccc(Cl)cc1)c1ccccc1
NO
COc1ccc(OC)c(/C=C(/C#N)c2ccccc2)c1
NO
CC(=O)O/C(C)=C\C(=O)O/N=C(\N)c1ccc(C)cc1
NO

Q: Just curious, what result did "CCOC(=O)/C=C1\Nc2ccccc2-n2nnnc21" get here?
Result: NO

Q: What do you get for "NNc1cnn(-c2ccccc2)c(=O)c1Cl" ?
Result: NO

Q: What do you get for N#CC1=C(S)N(C2OC(CO)C(O)C(O)C2O)C(c2ccccc2)=CC1c1ccccc1 (stereo unspecified) ?
Result: NO

Q: What do you get for "O=S1(=O)OCCOS(=O)(=O)C1Br" ?
Result: NO

Q: What do you get for "COc1ccc2[nH]c3c(C)c4ccnc(NCCCN(C)CCCNc5ccc([N+](=O)[O-])c6[nH]c7ccccc7c(=O)c56)c4c(C)c3c2c1" ?
Result: YES

Q: What do you get for CC(=O)C1=C(O)C(N)C2Cc3c(c(O)c4c(O)c(C)ccc4c3C)C(=O)C2(O)C1=O (stereo unspecified) ?
Result: NO

Q: What do you get for "CCCCCCCCCCCCCCCCNc1cccc2ccccc12" ?
Result: NO

Q: What do you get for CN(C)CCOc1ccc(/C(=C(/CCCl)c2ccccc2)c2ccccc2)cc1 [TOREMIFENE CITRATE] ?
Result: NO

Q: What do you get for "CCCCC/C(C=O)=C\c1ccccc1" ?
Result: NO

Q: What do you get for CCC(C=O)P1(=O)OC(C)(C)CN1C(C)(C)C (stereo unspecified) ?
Result: NO

Q: What do you get for "O=C(/C=C/c1ccc([N+](=O)[O-])cc1)N1CCN(CCOC(c2ccc(F)cc2)c2ccc(F)cc2)CC1" ?
Result: NO

Q: What do you get for CC1C2(C)OCC(C#N)(C(=N)O2)C1(C#N)C#N (stereo unspecified) ?
Result: NO

Q: What do you get for "C#CC[C@]12CC(=O)CC[C@H]1CC1(C2)OCCO1" ?
Result: NO
